Recorded IC50 values for a group of compounds are listed next.
Tested on: Huh-7
experiment.summary: Cytotoxicity against human Huh-7 cells assessed as inhibition of cell growth in presence of 10% fetal bovine serum measured after 48 hrs incubation by MTT assay
Format: functional, cell-based
protocol.conditions: Huh-7, 48 h
# output: bare number, implied unit µM

Qu. Please indicate recorded IC50 of "CO[C@@]1(C)C[C@@H]2c3c(coc3C1=O)C(=O)C[C@H]2C(C)C" measured with Huh-7.
Ans. 6.6

Qu. Please indicate recorded IC50 of "CC(C)[C@@H]1C=Cc2coc3c2[C@H]1C[C@@H](C)C3=O" measured with Huh-7.
Ans. 6.4

Qu. Please indicate recorded IC50 of "Cc1cc2c(C(C)C)cc(O)c(C=O)c2oc1=O" measured with Huh-7.
Ans. 4
